# TESTED TARGET: SHIP1 (Homo sapiens, UniProt Q92835)
# Construct: made in house; host or cells: HEK293 (transient transfection), unpurified extract
# Sequence (Q92835 1-1189): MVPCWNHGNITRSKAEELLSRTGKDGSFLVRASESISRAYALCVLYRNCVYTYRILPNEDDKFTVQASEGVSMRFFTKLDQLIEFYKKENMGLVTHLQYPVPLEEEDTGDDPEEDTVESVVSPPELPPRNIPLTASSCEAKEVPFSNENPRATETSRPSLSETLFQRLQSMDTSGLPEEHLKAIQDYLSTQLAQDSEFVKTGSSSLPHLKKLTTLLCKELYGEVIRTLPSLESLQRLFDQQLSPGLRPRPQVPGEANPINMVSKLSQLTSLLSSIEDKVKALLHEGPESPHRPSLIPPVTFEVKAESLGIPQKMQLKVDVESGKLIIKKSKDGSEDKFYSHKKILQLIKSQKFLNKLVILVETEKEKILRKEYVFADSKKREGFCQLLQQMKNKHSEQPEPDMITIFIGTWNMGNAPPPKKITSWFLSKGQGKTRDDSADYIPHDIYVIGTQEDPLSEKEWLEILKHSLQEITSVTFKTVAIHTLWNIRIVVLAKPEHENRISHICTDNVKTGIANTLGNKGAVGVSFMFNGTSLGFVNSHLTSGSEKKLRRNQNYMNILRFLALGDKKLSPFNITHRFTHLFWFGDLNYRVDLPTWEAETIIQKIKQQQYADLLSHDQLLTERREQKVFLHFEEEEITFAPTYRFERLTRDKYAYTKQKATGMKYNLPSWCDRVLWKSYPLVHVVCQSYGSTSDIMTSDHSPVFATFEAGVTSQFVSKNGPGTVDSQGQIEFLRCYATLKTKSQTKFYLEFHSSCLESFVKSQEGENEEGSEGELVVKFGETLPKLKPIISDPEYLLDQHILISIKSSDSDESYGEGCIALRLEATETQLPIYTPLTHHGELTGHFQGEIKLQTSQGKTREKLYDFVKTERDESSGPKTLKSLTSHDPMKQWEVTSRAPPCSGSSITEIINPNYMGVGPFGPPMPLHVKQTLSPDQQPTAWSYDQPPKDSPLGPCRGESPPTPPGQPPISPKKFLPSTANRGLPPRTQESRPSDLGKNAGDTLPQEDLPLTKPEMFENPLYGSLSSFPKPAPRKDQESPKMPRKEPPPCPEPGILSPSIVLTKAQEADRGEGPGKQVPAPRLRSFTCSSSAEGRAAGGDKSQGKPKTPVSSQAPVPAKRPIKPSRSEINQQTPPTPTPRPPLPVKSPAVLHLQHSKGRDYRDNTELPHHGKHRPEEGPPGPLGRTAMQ
# MEASUREMENT NOTES: biochemical
# Format: binding
# RECORDED CONDITIONS: dose-response; read-out: KD
MEASURED ENDPOINT: pKd
# reply with the number alone; pKd is -log10 of concentration in mol/L

Exam item: So what does the record say about pKd for C/C(=C\C(=O)N[C@H](C(=O)N1CCC[C@H]1C(=O)N(c1ccccc1)c1ccc(I)cc1)C(C)(C)C)c1ccc(OP(=O)(O)O)cc1 [STAT6-IN-1] ?
Marked response: 5.36
